Reported In-vivo radioactivity distribution: stomach values are given for each entry in this list.
- assay.summary: In-vivo radioactivity distribution experiment using normal mice (Example 2)
- particulars: normal mice, intravenous, 60 min; Example 2 numbering
readout.name: In-vivo radioactivity distribution: stomach

| substance.smiles | recorded.value |
| --- | --- |
| CN(C)c1ccc(C=CC(=O)c2ccc(I)s2)cc1 | 8.73 (4.21) percent of the dose |
| CNc1ccc(C(=O)/C=C/c2ccc(I)cc2)cc1 | 1.14 (0.48) percent of the dose |
| CNc1ccc(C=CC(=O)c2ccc(I)s2)cc1 | 14.32 (1.81) percent of the dose |
| CN(C)c1ccc(C(=O)/C=C/c2ccc(I)cc2)cc1 | 2.17 (1.24) percent of the dose |

* * *

- assay.summary: In-vivo radioactivity distribution experiment using normal mice (Example 2)
- particulars: normal mice, intravenous, 10 min; Example 2 numbering
- Protocol: Radioactive iodine labeling compounds were diluted with physiological saline containing 10% EtOH. To each of four or five 5-week-old male ddY mice (20 to 25 g) per group, […] of a labeled compound, [^125I]Compound 7, 10, 13, or 14 (0.2 to 0.4 mCi), was administered from the caudal vein. Animals were decapitated at 2, 10, 30, or 60 min, blood was collected, the major organs were isolated, and then weights and radioactivities thereof were measured.
readout.name: In-vivo radioactivity distribution: brain

| molecule | recorded.value |
| --- | --- |
| CNc1ccc(C=CC(=O)c2ccc(I)s2)cc1 [Compound 13 in Example 2] | 1.13 (0.16) percent of the dose/g |
| CNc1ccc(C(=O)/C=C/c2ccc(I)cc2)cc1 [Compound 7 in Example 2, 4-iodo-4′-methylaminochalcone] | 2.03 (0.41) percent of the dose/g |
| CN(C)c1ccc(C=CC(=O)c2ccc(I)s2)cc1 [Compound 14 in Example 2] | 0.75 (0.31) percent of the dose/g |
| CN(C)c1ccc(C(=O)/C=C/c2ccc(I)cc2)cc1 [Compound 10 in Example 2, 4-iodo-4′-dimethylaminochalcone] | 2.04 (0.26) percent of the dose/g |

* * *

- assay.summary: In-vivo radioactivity distribution experiment using normal mice (Example 2)
- particulars: normal mice, intravenous, 30 min; Example 2 numbering
readout.name: In-vivo radioactivity distribution: lung

| compound | readout.name | recorded.value |
| --- | --- | --- |
| CNc1ccc(C=CC(=O)c2ccc(I)s2)cc1 [Compound 13 in Example 2] | In-vivo radioactivity distribution: lung | 3.17 (0.52) percent of the dose/g |
| CNc1ccc(C(=O)/C=C/c2ccc(I)cc2)cc1 [Compound 7 in Example 2, 4-iodo-4′-methylaminochalcone] | In-vivo radioactivity distribution: lung | 2.22 (0.58) percent of the dose/g |
| CN(C)c1ccc(C(=O)/C=C/c2ccc(I)cc2)cc1 [Compound 10 in Example 2, 4-iodo-4′-dimethylaminochalcone] | In-vivo radioactivity distribution: lung | 1.95 (0.25) percent of the dose/g |
| CN(C)c1ccc(C=CC(=O)c2ccc(I)s2)cc1 [Compound 14 in Example 2] | In-vivo radioactivity distribution: lung | 3.53 (0.35) percent of the dose/g |

* * *

Reported In-vivo radioactivity distribution: pancreas values are given for each entry in this list.
- assay.summary: In-vivo radioactivity distribution experiment using normal mice (Example 2)
- particulars: normal mice, intravenous, 10 min; Example 2 numbering
readout.name: In-vivo radioactivity distribution: pancreas

| substance.smiles | recorded.value |
| --- | --- |
| CNc1ccc(C(=O)/C=C/c2ccc(I)cc2)cc1 | 2.99 (1.70) percent of the dose/g |
| CNc1ccc(C=CC(=O)c2ccc(I)s2)cc1 | 2.53 (0.72) percent of the dose/g |
| CN(C)c1ccc(C(=O)/C=C/c2ccc(I)cc2)cc1 | 2.12 (0.31) percent of the dose/g |
| CN(C)c1ccc(C=CC(=O)c2ccc(I)s2)cc1 | 1.94 (0.80) percent of the dose/g |

* * *

- assay.summary: In-vivo radioactivity distribution experiment using normal mice (Example 2)
- particulars: normal mice, intravenous, 10 min; Example 2 numbering
readout.name: In-vivo radioactivity distribution: stomach

| substance.smiles | recorded.value |
| --- | --- |
| CN(C)c1ccc(C=CC(=O)c2ccc(I)s2)cc1 | 5.29 (1.24) percent of the dose |
| CNc1ccc(C(=O)/C=C/c2ccc(I)cc2)cc1 | 0.87 (0.38) percent of the dose |
| CN(C)c1ccc(C(=O)/C=C/c2ccc(I)cc2)cc1 | 0.89 (0.28) percent of the dose |
| CNc1ccc(C=CC(=O)c2ccc(I)s2)cc1 | 5.13 (1.67) percent of the dose |

* * *

- assay.summary: In-vivo radioactivity distribution experiment using normal mice (Example 2)
- particulars: normal mice, intravenous, 2 min; Example 2 numbering
Reported In-vivo radioactivity distribution: pancreas values are given for each entry in this list.
readout.name: In-vivo radioactivity distribution: pancreas

| substance.smiles | recorded.value |
| --- | --- |
| CN(C)c1ccc(C=CC(=O)c2ccc(I)s2)cc1 | 3.82 (0.57) percent of the dose/g |
| CNc1ccc(C=CC(=O)c2ccc(I)s2)cc1 | 3.73 (0.67) percent of the dose/g |
| CNc1ccc(C(=O)/C=C/c2ccc(I)cc2)cc1 | 4.93 (1.01) percent of the dose/g |
| CN(C)c1ccc(C(=O)/C=C/c2ccc(I)cc2)cc1 | 3.85 (1.97) percent of the dose/g |

* * *

Reported In-vivo radioactivity distribution: liver values are given for each entry in this list.
- assay.summary: In-vivo radioactivity distribution experiment using normal mice (Example 2)
- particulars: normal mice, intravenous, 2 min; Example 2 numbering
readout.name: In-vivo radioactivity distribution: liver

| substance.smiles | recorded.value |
| --- | --- |
| CN(C)c1ccc(C(=O)/C=C/c2ccc(I)cc2)cc1 | 13.99 (1.57) percent of the dose/g |
| CNc1ccc(C=CC(=O)c2ccc(I)s2)cc1 | 8.41 (1.24) percent of the dose/g |
| CN(C)c1ccc(C=CC(=O)c2ccc(I)s2)cc1 | 9.57 (2.00) percent of the dose/g |
| CNc1ccc(C(=O)/C=C/c2ccc(I)cc2)cc1 | 10.82 (2.61) percent of the dose/g |

* * *

- assay.summary: In-vivo radioactivity distribution experiment using normal mice (Example 2)
- particulars: normal mice, intravenous, 2 min; Example 2 numbering
Reported In-vivo radioactivity distribution: heart values are given for each entry in this list.
readout.name: In-vivo radioactivity distribution: heart

| compound | recorded.value |
| --- | --- |
| CNc1ccc(C=CC(=O)c2ccc(I)s2)cc1 [Compound 13 in Example 2] | 3.55 (0.57) percent of the dose/g |
| CN(C)c1ccc(C(=O)/C=C/c2ccc(I)cc2)cc1 [Compound 10 in Example 2, 4-iodo-4′-dimethylaminochalcone] | 5.23 (0.61) percent of the dose/g |
| CNc1ccc(C(=O)/C=C/c2ccc(I)cc2)cc1 [Compound 7 in Example 2, 4-iodo-4′-methylaminochalcone] | 5.00 (0.79) percent of the dose/g |
| CN(C)c1ccc(C=CC(=O)c2ccc(I)s2)cc1 [Compound 14 in Example 2] | 5.05 (0.95) percent of the dose/g |

* * *

- assay.summary: In-vivo radioactivity distribution experiment using normal mice (Example 2)
- particulars: normal mice, intravenous, 30 min; Example 2 numbering
Reported In-vivo radioactivity distribution: brain values are given for each entry in this list.
readout.name: In-vivo radioactivity distribution: brain

| substance.smiles | recorded.value |
| --- | --- |
| CNc1ccc(C(=O)/C=C/c2ccc(I)cc2)cc1 | 0.69 (0.09) percent of the dose/g |
| CN(C)c1ccc(C=CC(=O)c2ccc(I)s2)cc1 | 0.31 (0.04) percent of the dose/g |
| CN(C)c1ccc(C(=O)/C=C/c2ccc(I)cc2)cc1 | 0.63 (0.06) percent of the dose/g |
| CNc1ccc(C=CC(=O)c2ccc(I)s2)cc1 | 0.28 (0.06) percent of the dose/g |

* * *

- assay.summary: In-vivo radioactivity distribution experiment using normal mice (Example 2)
- particulars: normal mice, intravenous, 10 min; Example 2 numbering
readout.name: In-vivo radioactivity distribution: spleen

| substance.smiles | recorded.value |
| --- | --- |
| CN(C)c1ccc(C=CC(=O)c2ccc(I)s2)cc1 | 5.48 (1.02) percent of the dose/g |
| CNc1ccc(C=CC(=O)c2ccc(I)s2)cc1 | 4.00 (1.55) percent of the dose/g |
| CN(C)c1ccc(C(=O)/C=C/c2ccc(I)cc2)cc1 | 1.52 (0.19) percent of the dose/g |
| CNc1ccc(C(=O)/C=C/c2ccc(I)cc2)cc1 | 1.47 (0.27) percent of the dose/g |

* * *

- assay.summary: In-vivo radioactivity distribution experiment using normal mice (Example 2)
- particulars: normal mice, intravenous, 60 min; Example 2 numbering
- Description: Radioactive iodine labeling compounds were diluted with physiological saline containing 10% EtOH. To each of four or five 5-week-old male ddY mice (20 to 25 g) per group, […] of a labeled compound, [^125I]Compound 7, 10, 13, or 14 (0.2 to 0.4 mCi), was administered from the caudal vein. Animals were decapitated at 2, 10, 30, or 60 min, blood was collected, the major organs were isolated, and then weights and radioactivities thereof were measured.
Reported In-vivo radioactivity distribution: liver values are given for each entry in this list.
readout.name: In-vivo radioactivity distribution: liver

| compound | recorded.value |
| --- | --- |
| CN(C)c1ccc(C=CC(=O)c2ccc(I)s2)cc1 [Compound 14 in Example 2] | 4.96 (1.27) percent of the dose/g |
| CNc1ccc(C=CC(=O)c2ccc(I)s2)cc1 [Compound 13 in Example 2] | 4.32 (0.75) percent of the dose/g |
| CN(C)c1ccc(C(=O)/C=C/c2ccc(I)cc2)cc1 [Compound 10 in Example 2, 4-iodo-4′-dimethylaminochalcone] | 7.06 (2.45) percent of the dose/g |
| CNc1ccc(C(=O)/C=C/c2ccc(I)cc2)cc1 [Compound 7 in Example 2, 4-iodo-4′-methylaminochalcone] | 6.01 (1.81) percent of the dose/g |
